Please go through the items and note down their CC50 at 6 days.
# Assay Name: Cytotoxicity determination in HepG2.2.15 cells (CCK-8)
# Format: cell-based
# Measurement Setup: human, 6 days of compound treatment, CCK-8, highest concentration 100 μM

CC50 at 6 days lookup needed for COC(=O)C1=C(C2CCN(S(=O)(=O)c3cnn(C4CC4)c3)CC2)NC(c2nccs2)=NC1c1ccc(F)cc1Cl (stereo not shown) , thanks. > 100 µM

Would you mind doing COC(=O)C1=C(C2CCN(C(N)=O)CC2)NC(c2nccs2)=NC1c1ccc(F)cc1Cl (stereo not shown) as well? > 100 µM

Would you mind doing COC(=O)C1=C(C2CCN(C)C(=O)C2)NC(c2nccs2)=NC1c1cccc(F)c1Cl (single isomer, unassigned) as well? > 10 µM

Would you mind doing CCOC(=O)C1=C([C@H]2CC[C@H](C(=O)O)CO2)NC(c2nccs2)=NC1c1ccc(F)cc1Cl (single isomer, unassigned) [Compound 363E] as well? > 100 µM

###

# Tested on: HepG2.2.15 cells
# Assay Name: Cytotoxicity determination in HepG2.2.15 cells (CCK-8)
# Type: cell-based
# Measurement Setup: 6 days of compound treatment, CCK-8, highest concentration 100 μM
Please go through the items and note down their CC50.
Number in µM, nothing else.

CC50 lookup needed for COC(=O)C1=C(C2CCOC2)NC(c2nccs2)=NC1c1cccc(F)c1Cl (single isomer, unassigned) [Compound 74D] , thanks. 84.5

Would you mind doing COC(=O)C1=C(C2CCCN(S(C)(=O)=O)C2)NC(c2nccs2)=NC1c1ccc(F)cc1Cl (single isomer, unassigned) [Compound 33C] as well? 37.7

Would you mind doing COC(=O)C1=C(C2COC(CO)C2)NC(c2nccs2)=NC1c1cccc(F)c1Cl (single isomer, unassigned) [Compound 219C] as well? 10.3

Would you mind doing COC(=O)C1=C(C2COC(CO)C2)NC(c2nccs2)=NC1c1cccc(F)c1Cl (single isomer, unassigned) [Compound 219E] as well? 51.4

Would you mind doing COC(=O)C1=C(C2CCN(S(=O)(=O)[C@H]3C[C@](C)(C(=O)O)C3)CC2)NC(c2nccs2)=NC1c1cccc(F)c1Cl (stereo partly shown) [Compound 274A] as well? 31.4

Would you mind doing CCOC(=O)C1=C(C2CCN(S(=O)(=O)C3CC(C)(C(=O)O)C3)CC2)NC(c2nccs2)=NC1c1cccc(F)c1C (single isomer, unassigned) [Compound 429D] as well? 16

Would you mind doing CCOC(=O)C1=C(C2CCN(S(=O)(=O)C3CC(CC(=O)O)C3)CC2)NC(c2nccs2)=NC1c1ccc(F)c(F)c1Cl (stereo not shown) [Compound 482B] as well? 11.3

Would you mind doing COC(=O)C1=C(C2CCCN(S(C)(=O)=O)C2)NC(c2nccs2)=NC1c1ccc(F)cc1Cl (single isomer, unassigned) [Compound 33A] as well? 78.1

Would you mind doing COC(=O)C1=C(C2CCC(=O)N2)NC(c2nccs2)=NC1c1cccc(F)c1Cl (single isomer, unassigned) [Compound 75D] as well? 10.2

Would you mind doing COC(=O)C1=C(C2CCN(S(=O)(=O)CC(O)CO)CC2)NC(c2nccs2)=NC1c1ccc(F)cc1Cl (single isomer, unassigned) [Compound 305B] as well? 34.5

###

# Assay Name: Cytotoxicity determination in HepG2.2.15 cells (CCK-8)
# Assay type: cell-based
# Measurement Setup: human, 6 days of compound treatment, CCK-8, highest concentration 100 μM
Please go through the items and note down their CC50 at 6 days.

CC50 at 6 days lookup needed for COC(=O)C1=C(C2CCN(S(=O)(=O)C3CCC(C(=O)OC(C)(C)C)CC3)CC2)NC(c2nccs2)=NC1c1ccc(F)cc1Cl (single isomer, unassigned) [Compound 312X] , thanks. > 100 µM

Would you mind doing COC(=O)C1=C(C2CCN(S(=O)(=O)C3COC3)CC2)NC(c2nccs2)=NC1c1ccc(F)cc1Cl (single isomer, unassigned) [Compound 110B] as well? > 10 µM

Would you mind doing COC(=O)C1=C([C@@H]2CCN(S(=O)(=O)CC(F)(F)F)C2)NC(c2nccs2)=NC1c1ccc(F)cc1Cl (stereo partly drawn) as well? > 100 µM

Where do these numbers come from? They come from patent US11639350B2.
